- study_system: human NTSR1 (Homo sapiens)
- Construct: host or cells: HEK-293 cells (membrane preparations)
- Sequence (P30989 whole entry): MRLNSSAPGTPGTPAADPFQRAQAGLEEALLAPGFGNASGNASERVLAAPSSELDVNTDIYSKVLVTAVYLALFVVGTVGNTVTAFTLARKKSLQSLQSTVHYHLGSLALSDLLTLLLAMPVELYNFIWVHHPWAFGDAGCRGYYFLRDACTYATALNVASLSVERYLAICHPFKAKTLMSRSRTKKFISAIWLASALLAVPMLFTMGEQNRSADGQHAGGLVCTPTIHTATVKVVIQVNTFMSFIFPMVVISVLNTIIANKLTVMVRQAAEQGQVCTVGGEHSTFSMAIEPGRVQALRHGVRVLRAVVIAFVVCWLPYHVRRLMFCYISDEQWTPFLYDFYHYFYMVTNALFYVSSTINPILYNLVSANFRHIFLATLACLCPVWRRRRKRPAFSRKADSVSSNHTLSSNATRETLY
- procedure_summary: radioligand-receptor binding assay, [125I] labeled neurotensin (Eurofins Panlabs)
- particulars: [125I] neurotensin 0.02 nM, membranes from NTSR1 expressing HEK-293 cells, 45 minute incubation, Cheng and Prusoff; read-out: NTSR1 binding Ki

>  <compound>
CCc1c2c(nc3ccc(O)cc13)-c1cc3c(c(=O)n1C2)COC(=O)[C@@]3(CC)OC(=O)OCc1ccc(NC(=O)[C@H](CCCNC(N)=O)NC(=O)[C@@H](NC(=O)CCCCCN2C(=O)CC(SC(C)(C)[C@H](NC(C)=O)C(=O)N3CCC[C@H]3C(=O)N[C@@H](CCCNC(=N)N)C(=O)N[C@@H](CCCNC(=N)N)C(=O)N3CCC[C@H]3C(=O)N[C@@H](Cc3ccc(O)cc3)C(=O)N[C@H](C(=O)N[C@@H](CC(C)C)C(=O)O)C(C)(C)C)C2=O)C(C)C)cc1 (some centres unmarked)

>  <unit_abbreviation>
nM

>  <Ki>
2.05

$$$$
>  <compound>
CO[C@H]1C(=O)[C@]2(C)[C@@H](OC)C[C@H]3OC[C@@]3(OC(C)=O)[C@H]2[C@H](OC(=O)c2ccccc2)[C@]2(O)C[C@H](OC(=O)[C@H](OC(=O)OCCSSC(C)(C)[C@H](NC(C)=O)C(=O)N3CCC[C@H]3C(=O)N[C@@H](CCCNC(=N)N)C(=O)N[C@@H](CCCNC(=N)N)C(=O)N3CCC[C@H]3C(=O)N[C@@H](Cc3ccc(O)cc3)C(=O)N[C@H](C(=O)N[C@@H](CC(C)C)C(=O)O)C(C)(C)C)[C@@H](NC(=O)OC(C)(C)C)c3ccccc3)C(C)=C1C2(C)C

>  <unit_abbreviation>
nM

>  <Ki>
3.97

$$$$
